Tested on: VEGF-stimulated ADSC/ECFC co-culture, nuclear area imaging
experimental_protocol: nuclear area loss in endothelial-stromal co-culture, dose response, cell-based, VEGF stimulation, IC50 (AID 1117324)
Activity calls are given as the source filed them. The rule behind the calls is not given here.
quantity_measured: IC50

Completed entries (count: 2):
INSERT INTO assay_data (compound, tgt, measurement) VALUES
  ('CCN(CC)CCOc1ccc(C(O)(Cc2ccc(Cl)cc2)c2ccc(C)cc2)cc1 (stereo not given)', 'VEGF-stimulated ADSC/ECFC co-culture, nuclear area imaging', '6.98 µM (inactive)'),
  ('Nc1c2ccccc2nc2ccccc12', 'VEGF-stimulated ADSC/ECFC co-culture, nuclear area imaging', '> 10 µM (inactive)');

Look at each compound and report its IC50.
1. C/C=C(/C(=C/C)c1ccc(OC(C)=O)cc1)c1ccc(OC(C)=O)cc1
2. CN1CC[C@H](c2c(O)cc(O)c3c(=O)cc(-c4ccccc4Cl)oc23)[C@H](O)C1
3. CC(C)=CCC/C(C)=C/CC/C(C)=C/C(=O)OCC(=O)[C@@]1(O)CC[C@H]2[C@@H]3CCC4=CC(=O)C=C[C@]4(C)[C@H]3[C@@H](O)C[C@@]21C
4. CCCCCCCCCCCCCCCCNc1ccc(C(=O)O)cc1
5. O=C(CCBr)N1CCN(C(=O)CCBr)CC1
6. CO[C@H]1O[C@@H]2O[C@@]3(C)CC[C@H]4[C@H](C)CC[C@@H]([C@@H]1C)[C@@]24OO3

Result block:
> 10 µM (inactive)
0.328 µM
> 10 µM (inactive)
> 10 µM (inactive)
> 10 µM (inactive)
> 10 µM (inactive)

// for each compound in input: emit IC50
1. OC[C@@H](O)[C@H](O)[C@H](O)[C@@H](O)CO
2. COc1cc([C@@H]2c3cc4c(cc3[C@H](O)[C@H]3COC(=O)[C@H]23)OCO4)cc(OC)c1OC

Result block:
1: > 10 µM (inactive); 2: > 10 µM (inactive)
